Test system: mouse liver microsomes, LC/MS/MS parent remaining, 60 min
ASSAY_EXPLANATION: metabolic stability in mouse liver microsomes, late-stage follow-up, ADME assay, biochemical, LC/MS/MS, with and without NADPH (AID 1940)
STUDY_CONDITIONS: measured here: no NADPH control; at 1 µM; stronger effect = lower value
MEASURE_NAME: percent remaining (%)

                                   compound  meas_value
0  CC1Cc2cc(S(=O)(=O)N3CCN(c4ccc(Cl)cc4)CC3)ccc2N1C(=O)C1CC1 (stereo unspecified)        61.2

* * *

System: mouse liver microsomes, LC/MS/MS parent remaining, 60 min
ASSAY_EXPLANATION: metabolic stability in mouse liver microsomes, late-stage follow-up, ADME assay, biochemical, LC/MS/MS, with and without NADPH (AID 1940)
STUDY_CONDITIONS: at 1 µM; stronger effect = lower value
MEASURE_NAME: percent remaining (%)

>>> df
                                   molecule  meas_value
0  CC1Cc2cc(S(=O)(=O)N3CCN(c4ccc(Cl)cc4)CC3)ccc2N1C(=O)C1CC1 (stereo unspecified)        0.56
